B1: NET1 (parent)
chain: RVRPLARVTSLANLISPVRNGAVR

Variants of: B1
Assay: protein stability index of a GFP-peptide fusion (GPS, HEK-293T) (PSI 1-6); higher = more stable;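 also: lentivirally expressed fusions sorted by FACS into six bins by GFP to DsRed ratio, PSI derived from sequencing read proportions per bin multiplied by bin number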
Details: c terminus: a fixed tail appended
Measured Quantity: protein stability index
Keep it simple and answer with nothing but the number.

Below are worked cases with known answers.
[
  {
    "Mutation Name": "L11V",
    "protein stability index": 3.08
  },
  {
    "Mutation Name": "P4D",
    "protein stability index": 3.06
  },
  {
    "Mutation Name": "N20P",
    "protein stability index": 2.94
  },
  {
    "Mutation Name": "V18L",
    "protein stability index": 2.94
  },
  {
    "Mutation Name": "V2H",
    "protein stability index": 2.91
  }
]

Could you tell me which protein stability index is on file for A12K ?
2.94

Would you mind telling me what protein stability index value was observed for V18A ?
3.03

Recorded protein stability index for V8C , please?
2.93

Which protein stability index is reported for this variant? A22N
3.02

I am curious: what protein stability index value has been reported for R1M ?
2.97

Give the measured protein stability index of A6P .
3.04
